target: AChE (Homo sapiens, UniProt P22303)
Sequence (P22303 32-614): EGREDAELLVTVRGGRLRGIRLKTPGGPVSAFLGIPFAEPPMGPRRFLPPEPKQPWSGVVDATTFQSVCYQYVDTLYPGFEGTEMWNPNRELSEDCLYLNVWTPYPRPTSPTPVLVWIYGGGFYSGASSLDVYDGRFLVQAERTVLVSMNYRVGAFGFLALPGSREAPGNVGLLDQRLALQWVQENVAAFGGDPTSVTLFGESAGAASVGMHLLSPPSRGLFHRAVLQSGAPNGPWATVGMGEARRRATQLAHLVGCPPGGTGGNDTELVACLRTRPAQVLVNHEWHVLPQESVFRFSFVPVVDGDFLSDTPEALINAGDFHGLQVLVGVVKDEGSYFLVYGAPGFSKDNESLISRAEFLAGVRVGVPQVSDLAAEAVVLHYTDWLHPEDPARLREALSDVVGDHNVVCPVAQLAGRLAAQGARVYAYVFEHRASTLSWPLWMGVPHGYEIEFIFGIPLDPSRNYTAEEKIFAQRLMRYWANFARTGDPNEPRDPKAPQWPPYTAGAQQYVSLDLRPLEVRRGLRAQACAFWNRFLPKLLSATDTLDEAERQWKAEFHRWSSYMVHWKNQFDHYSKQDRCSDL
assay-name: biochemical
assay-setup: at 100 µg/mL; n: 3; '-' = No inhibition; read-out: ChE Inhibition (Inhibition % ± S.D. at 100 µg/mL) AChE
endpoint-name: inhibition at 100 µg/mL (%)

- CC(CCC(O)C(C)(C)O)C1C(O)CC2(C)C3CC(OC4OC(CO)C(O)C(O)C4O)C4C(C)(C)C(OC5OCC(O)C(O)C5OC5OC(CO)C(O)C(O)C5O)CCC45CC35CCC12C (stereo not drawn) [Cyclocanthoside G]: 6.85
- CC(CCC(O)C(C)(C)O)C1C(O)CC2(C)C3CC(OC4OC(CO)C(O)C(O)C4O)C4C(C)(C)C(OC5OCC(O)C(O)C5O)CCC45CC35CCC12C (stereo not drawn) [Cyclocanthoside E]: 2.18
- C[C@@H]1CC[C@@]2(OC1)O[C@H]1C[C@H]3[C@@H]4CC[C@@H]5C[C@@H](O)CC[C@]5(C)[C@H]4CC[C@]3(C)[C@H]1[C@@H]2C: 62.4
- CC(C)(O)[C@@H]1CC[C@](C)([C@H]2[C@@H](O)C[C@@]3(C)[C@@H]4C[C@H](O[C@@H]5O[C@H](CO)[C@@H](O)[C@H](O)[C@H]5O)[C@H]5C(C)(C)[C@@H](O[C@@H]6OC[C@@H](O)[C@H](O)[C@H]6O)CC[C@@]56C[C@@]46CC[C@]23C)O1 [Astragaloside IV]: 4.8
- C[C@@H]1O[C@@H](O[C@@H]2[C@@H](O)[C@H](OCCc3ccc(O)c(O)c3)O[C@H](CO)[C@H]2OC(=O)/C=C/c2ccc(O)c(O)c2)[C@H](O)[C@H](O)[C@H]1O [Verbascoside]: 8.12
- CC(C)(O)[C@@H]1CC[C@](C)([C@H]2[C@@H](O)C[C@@]3(C)[C@@H]4C[C@H](O[C@@H]5O[C@H](CO)[C@@H](O)[C@H](O)[C@H]5O)[C@H]5C(C)(C)[C@@H](O[C@@H]6OC[C@@H](O)[C@H](O)[C@H]6O[C@@H]6O[C@H](CO)[C@@H](O)[C@H](O)[C@H]6O)CC[C@@]56C[C@@]46CC[C@]23C)O1 [Astragaloside VI]: 6.23
- CC(=O)OC1C(O)COC(OC2CCC34CC35CCC3(C)C(C6(C)CCC(C(C)(C)O)O6)C(O)CC3(C)C5CC(OC3OCC(O)C(O)C3O)C4C2(C)C)C1OC(C)=O (stereo not drawn): 8.01
- CC(CCC(O)C(C)(C)OC1OCC(O)C(O)C1O)C1CCC2(C)C3C(O)CC4C(C)(C)C(OC5OC(C)C(O)C(O)C5O)CC(O)C45CC35CCC12C (stereo not drawn): 12.4
- C[C@@H]1CC[C@@]2(OC1)O[C@H]1C[C@H]3[C@@H]4CC=C5C[C@@H](O)CC[C@]5(C)[C@H]4CC[C@]3(C)[C@H]1[C@@H]2C: 4.31

###

target: AChE (Homo sapiens)
assay-name: biochemical
assay-setup: at 100 µg/mL; n: 3; '-' = No inhibition; read-out: ChE Inhibition (Inhibition % ± S.D. at 100 µg/mL) AChE
Measured inhibition at 100 µg/mL of individual entries
endpoint-name: inhibition at 100 µg/mL

* CC(=O)OC1C(O)COC(OC2CCC34CC35CCC3(C)C(C6(C)CCC(C(C)(C)O)O6)C(O)CC3(C)C5CC(OC3OC(CO)C(O)C(O)C3O)C4C2(C)C)C1OC(C)=O (stereo not drawn) [Astragaloside I] | < 0%
* O=C(O)C1OC(Oc2cc(O)c3c(=O)cc(-c4ccc(O)c(O)c4)oc3c2)C(O)C(O)C1O (stereo not drawn) [Luteolin-7-O-glucuronide] | < 0%
* COC(=O)C1=COC(OC2OC(CO)C(O)C(O)C2O)C2C1(O)CC(O)C2(C)O (stereo not drawn) [Lamiide] | < 0%

These data points were gathered from paper PMC8037418.
